Data origin, for the record: PubChem BioAssay (EPA / NIEHS)

# assayName: CCTE_Harrill_HTTr_Viability_PRF_DMEM_12hr: (Pilot) CCTE's 12-hour Cell Viability Assessment for the High-Throughput Transcriptomics (HTTr) Platform, in MCF-7 cells cultured in phenol red-free DMEM + 10% charcoal-stripped fetal bovine serum, Harrill Lab (AID 2283977)
Activity calls are given as the source filed them. The calls were made as follows: active = hit-call score of the fitted dose curve at least 0.9, where 1 is the maximum; inactive = score below 0.9.
Returns: one label drawn from 1 (yes) for active, 0 (no) for inactive

Study these solved cases before continuing.
q: Tell me the recorded outcome of this test for N[C@@H](Cc1cc(I)c(Oc2ccc(O)c(I)c2)c(I)c1)C(=O)O .
a: 0 (no)

q: Tell me the recorded outcome of this test for S=C([S-])NCCNC(=S)[S-].[Mn+2] .
a: 0 (no)

q: Tell me the recorded outcome of this test for CC(C)CCCCCCc1ccc(O)cc1 .
a: 1 (yes)

Please turn your attention to the following entry.
q: Tell me the recorded outcome of this test for C=CCOC(Cn1ccnc1)c1ccc(Cl)cc1Cl (centres undefined) .
a: 0 (no)

---

# experimentalSystem: Retinoic acid receptor RXR-alpha (Homo sapiens)
# assayName: OT_NURR1_NURR1RXRa_1440: Odyssey Thera (OT) 24-hour HEK293T Protein Complementation Assay for Nurr1/retinoid X receptor (RXR) (AID 2283386)
Records with an inconclusive call do not appear. Active and inactive are the calls of the source. Rule for the calls: active = hit-call score of the fitted dose curve at least 0.9, where 1 is the maximum; inconclusive = response in the unintended direction; inactive = score below 0.9.
Returns: one label drawn from active, inactive

Study these solved cases before continuing.
q: Tell me the recorded outcome of this test for CC1(C)C(C=C(Cl)Cl)C1C(=O)OCc1cccc(Oc2ccccc2)c1 (stereo unspecified) .
a: inactive

q: Tell me the recorded outcome of this test for CN(C)C(=O)Nc1ccc(Cl)c(Cl)c1 .
a: inactive

q: Tell me the recorded outcome of this test for CCCOC(=O)NCCCN(C)C .
a: inactive

Continuing:
q: Tell me the recorded outcome of this test for CCSC(=O)N(CC(C)C)CC(C)C .
a: inactive

---

# Read-out: BCL2L11 (gene 10018)
# assayName: LTEA_HepaRG_BCL2L11: Life Technologies and Expression Analysis (LTEA) Assay for Bcl-2 (BCL2L11) gene using HepaRG (AID 2283473)
# conditionInfo: mRNA level, 48 h; actives raise or lower the signal
Activity calls are given as the source filed them. How the source made its calls: active means hit-call score of the fitted dose curve at least 0.9, where 1 is the maximum; inactive means score below 0.9.
Returns: one label drawn from active, inactive

q: Tell me the recorded outcome of this test for CCCCOCCOCCOCc1cc2c(cc1CCC)OCO2 .
a: inactive

q: Tell me the recorded outcome of this test for CCCN(CCC)C(=O)SCC .
a: inactive

q: Tell me the recorded outcome of this test for CCCCCCC(C)OC(=O)COc1nc(F)c(Cl)c(N)c1Cl (centres undefined) .
a: inactive

q: Tell me the recorded outcome of this test for CCC(C)OC(=O)N1CCCCC1CCO (centres undefined) .
a: inactive

q: Tell me the recorded outcome of this test for C[C@]12C[C@H](O)[C@H]3[C@@H](CCC4=CC(=O)CC[C@@]43C)[C@@H]1CC[C@@H]2C(=O)CO .
a: inactive

Continuing:
q: Tell me the recorded outcome of this test for CC(=O)[C@H]1CC[C@H]2[C@@H]3CCC4=CC(=O)CC[C@]4(C)[C@H]3CC[C@]12C .
a: active

q: Tell me the recorded outcome of this test for COCCO .
a: inactive

q: Tell me the recorded outcome of this test for CCN(Cc1c(F)cccc1Cl)c1c([N+](=O)[O-])cc(C(F)(F)F)cc1[N+](=O)[O-] .
a: inactive

q: Tell me the recorded outcome of this test for CCCN(CCC)c1c([N+](=O)[O-])cc(C(F)(F)F)c(N)c1[N+](=O)[O-] .
a: inactive

q: Tell me the recorded outcome of this test for CC(=O)S[C@@H]1CC2=CC(=O)CC[C@]2(C)[C@H]2CC[C@@]3(C)[C@@H](CC[C@@]34CCC(=O)O4)[C@H]12 .
a: inactive

q: Tell me the recorded outcome of this test for CCOC(=O)C(C)Oc1ccc(Oc2nc3ccc(Cl)cc3o2)cc1 (centres undefined) .
a: inactive

q: Tell me the recorded outcome of this test for CCOC(=O)COc1cc(-n2ncc(C(F)(F)F)c(C)c2=O)c(F)cc1Cl .
a: inactive

q: Tell me the recorded outcome of this test for O=C(c1ccc(O)cc1O)c1ccc(O)cc1O .
a: inactive

q: Tell me the recorded outcome of this test for Oc1ccc(C(c2ccc(O)cc2)C(Cl)(Cl)Cl)cc1 .
a: inactive

q: Tell me the recorded outcome of this test for CCOC(=O)c1ccc(O)cc1 .
a: inactive

q: Tell me the recorded outcome of this test for c1ccc2[nH]c(-c3cscn3)nc2c1 .
a: inactive

q: Tell me the recorded outcome of this test for c1ccc(Nc2ccccc2)cc1 .
a: inactive

q: Tell me the recorded outcome of this test for CCCOC(=O)NCCCN(C)C .
a: inactive

q: Tell me the recorded outcome of this test for CCCCC(CC)CN1C(=O)C2C3C=CC(C3)C2C1=O (centres undefined) .
a: inactive

q: Tell me the recorded outcome of this test for COC(=O)CSc1cc(N=c2sc(=O)n3n2CCCC3)c(F)cc1Cl .
a: inactive

---

# Read-out: Bcl-2 (BID) gene, BID (gene 637)
# assayName: LTEA_HepaRG_BID: Life Technologies and Expression Analysis (LTEA) Assay for Bcl-2 (BID) gene using HepaRG (AID 2283476)
# conditionInfo: mRNA level, 48 h; actives raise or lower the signal
Activity calls are given as the source filed them. Rule for the calls: active = hit-call score of the fitted dose curve at least 0.9, where 1 is the maximum; inactive = score below 0.9.
Returns: one label drawn from active, inactive

q: Tell me the recorded outcome of this test for C[C@]12CC[C@@H]3c4ccc(O)cc4C[C@@H](CCCCCCCCCS(=O)CCCC(F)(F)C(F)(F)F)[C@H]3[C@@H]1CC[C@@H]2O (stereo partly specified) .
a: active

q: Tell me the recorded outcome of this test for CCOC(=O)COc1cc(-n2ncc(C(F)(F)F)c(C)c2=O)c(F)cc1Cl .
a: inactive

q: Tell me the recorded outcome of this test for CCCN(CCC)C(=O)SCC .
a: inactive

q: Tell me the recorded outcome of this test for CC(C)CCCCCCc1ccc(O)cc1 .
a: inactive

q: Tell me the recorded outcome of this test for S=C(S)NCCNC(=S)S.[Mn+2].[S-]C([S-])=NCCN=C([S-])[S-].[Zn+2] .
a: inactive

Please turn your attention to the following entry.
q: Tell me the recorded outcome of this test for C#CCOC(=O)[C@@H](C)Oc1ccc(Oc2ncc(Cl)cc2F)cc1 .
a: inactive

---

# assayName: BSK_3C_Vis: BioMAP Diversity Plus: 3C Assay for Morphology Visualization (AID 2283025);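 also: fitted both ways so gain or loss versus DMSO counts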
# conditionInfo: primary human endothelial cells (HUVEC)
The source made the active and inactive calls. Rule for the calls: active = hit-call score of the fitted dose curve at least 0.9, where 1 is the maximum; inactive = score below 0.9.
Returns: one label drawn from yes = active, no = inactive

Study these solved cases before continuing.
q: Tell me the recorded outcome of this test for CCOC(=O)NCCOc1ccc(Oc2ccccc2)cc1 .
a: yes

q: Tell me the recorded outcome of this test for O=C(c1ccc(O)cc1O)c1ccc(O)cc1O .
a: no

q: Tell me the recorded outcome of this test for CCCCCOC(=O)COc1cc(N2C(=O)C3=C(CCCC3)C2=O)c(F)cc1Cl .
a: no

q: Tell me the recorded outcome of this test for CC(C)CCCCCCc1ccc(O)cc1 .
a: yes

q: Tell me the recorded outcome of this test for CCCOC(=O)c1ccc(C(=O)OCCC)nc1 .
a: no

Please turn your attention to the following entry.
q: Tell me the recorded outcome of this test for O=C(O)C1(C(=O)Nc2ccc(Cl)cc2Cl)CC1 .
a: no

---

# experimentalSystem: Cellular tumor antigen p53 (Homo sapiens)
# assayName: TOX21_p53_BLA_p5_ratio: Tox21 HCT-116 p53 Agonism Beta-lactamase Assay, Ratio, Phase 5 (AID 2283599)
Results filed as inconclusive are left out. Activity calls are given as the source filed them. Rule for the calls: active = hit-call score of the fitted dose curve at least 0.9, where 1 is the maximum; inconclusive = response in the unintended direction; inactive = score below 0.9.
Returns: one label drawn from true (1) = active, false (0) = inactive

q: Tell me the recorded outcome of this test for COC(=O)c1ccc(I)cc1S(=O)(=O)NC(=O)Nc1nc(C)nc(OC)n1 .
a: false (0)

q: Tell me the recorded outcome of this test for COc1nc(C)nc(NC(=O)NS(=O)(=O)c2ccccc2OCCCl)n1 .
a: false (0)

q: Tell me the recorded outcome of this test for C#C[C@]1(O)CC[C@H]2[C@@H]3CCC4=CC(=O)CC[C@@H]4[C@H]3CC[C@@]21CC .
a: false (0)

q: Tell me the recorded outcome of this test for OB(O)O .
a: false (0)

q: Tell me the recorded outcome of this test for CCCN(CCC)c1c([N+](=O)[O-])cc(C(F)(F)F)c(N)c1[N+](=O)[O-] .
a: true (1)

Continuing:
q: Tell me the recorded outcome of this test for CCOC(=O)NCCOc1ccc(Oc2ccccc2)cc1 .
a: false (0)

q: Tell me the recorded outcome of this test for Cc1nn(C)c(Oc2ccccc2)c1C=NOCc1ccc(C(=O)OC(C)(C)C)cc1 .
a: false (0)

q: Tell me the recorded outcome of this test for CCCCC(CC)CN1C(=O)C2C3C=CC(C3)C2C1=O (configuration not stated) .
a: false (0)

q: Tell me the recorded outcome of this test for CCCOC(=O)NCCCN(C)C .
a: false (0)

q: Tell me the recorded outcome of this test for O=C(O)C1(C(=O)Nc2ccc(Cl)cc2Cl)CC1 .
a: false (0)

q: Tell me the recorded outcome of this test for CCSC(=O)N(CC(C)C)CC(C)C .
a: false (0)

q: Tell me the recorded outcome of this test for CCOC(=O)C(C)Oc1ccc(Oc2nc3ccc(Cl)cc3o2)cc1 (configuration not stated) .
a: false (0)
